The following binders are listed with their measured koff values.
Biological target: T1, human PD-1-His protein (human, UniProt Q15116 25-167, limits assumed)
T1 construct: also called huPD-1; not shown: His tag
T1 sequence (Q15116 25-167 limits assumed): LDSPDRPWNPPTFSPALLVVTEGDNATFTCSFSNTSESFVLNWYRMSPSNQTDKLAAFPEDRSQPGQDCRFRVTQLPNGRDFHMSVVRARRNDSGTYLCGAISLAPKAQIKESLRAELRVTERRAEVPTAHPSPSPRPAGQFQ
Test: SPR Biacore

Some solved cases for reference:
[
  {
    "binder": "HumAb713-3 (antibody, human IgG1, kappa, L234A L235A, V domains shown, humanized mAb713; also called HurnAb713-3) VH: EVQLVESGGGLVQPGGSLRLSCAASGFTSSDYGMHWVRQAPGKGLEWVSYISSGSYTIYYADTVKGRFTISRDNAKNSLYLQMNSLRDEDTAVYYCAKRGGSSHVNVMDYWGQGTTVTVSS VL: DIQMTQSPSSLSASVGDRVTITCKASDHINNWLAWYQQKPGKAPKLLIYGATSLETGVPSRFSGSGSGTDFTFTISSLQPEDIATYYCQQYWSPPYTFGGGTKVEIKR",
    "measurement": "0.000208 s⁻¹"
  },
  {
    "binder": "HumAb713-7 (antibody, human IgG1, kappa, L234A L235A, V domains shown, humanized mAb713) VH: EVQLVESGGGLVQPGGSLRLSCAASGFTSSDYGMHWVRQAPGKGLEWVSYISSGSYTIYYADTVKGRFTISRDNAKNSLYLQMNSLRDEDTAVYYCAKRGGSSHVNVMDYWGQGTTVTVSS VL: DIQMTQSPSSLSASVGDRVTITCKASDHINNWLAWYQQKPGKAPKLLIYGATSLETGVPSRFSGSGSGTDYTFTISSLQPEDIATYYCQQYWSPPYTFGGGTKVEIKR",
    "measurement": "0.00035 s⁻¹"
  },
  {
    "binder": "HumAb713-11 (antibody, human IgG1, kappa, L234A L235A, V domains shown, humanized mAb713) VH: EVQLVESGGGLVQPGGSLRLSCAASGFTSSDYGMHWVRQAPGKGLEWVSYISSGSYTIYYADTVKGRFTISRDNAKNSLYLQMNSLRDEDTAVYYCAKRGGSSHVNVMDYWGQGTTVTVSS VL: DIQMTQSPSSLSASVGDRVTITCKASDHINNWLAWYQQKPGKAPKLLISGATSLETGVPSRFSGSGSGTDYTFTISSLQPEDIATYYCQQYWSPPYTFGGGTKVEIKR",
    "measurement": "0.000378 s⁻¹"
  }
]

# next binder below
Q. koff for mAb713c (antibody, V domains shown, also called mAb73c) VH: EVKLVESGGGLVKPGGSLELSCAASGFTSSDYGMHWVRQAPEKGLEWVAYISSGSYTIYYADTVKGRFTISRDNAKNTLFLQMTSLRSEDTAMYYCAKRGGSSHVNVMDYWGQGTSVTVSS VL: DIQMTQSSSYLSVSLGGRVTITCKASDHINNWLAWYQQKPGNAPRLLISGATSLETGVPSRFSGSGSGKDYTLSITSLQTEDVATYYCQQYWSPPYTFGGGTKLEIK ?
A. 0.000284 s⁻¹
